- TARGET: HLA-A*11:01
- MEASUREMENT PROTOCOL: IEDB peptide-MHC binding, purified MHC/direct/fluorescence; filed as Kd, often an IC50 or EC50 that approximates it; bounds were set here for any values at or beyond the usual limits of such assays
- EXPERIMENTAL CONTEXT: source organism: Influenza A virus (A/camel/Mongolia/1982(H1N1))
ENDPOINT NAME: Kd

Input line: Please give the documented Kd of EKFFPSSSY
Output line: ≥ 20 µM

* * *

- TARGET: HLA-B*08:01
- MEASUREMENT PROTOCOL: IEDB peptide-MHC binding, purified MHC/competitive/radioactivity; filed as Kd, often an IC50 or EC50 that approximates it; bounds were set here for any values at or beyond the usual limits of such assays
- EXPERIMENTAL CONTEXT: source organism: Dengue virus 3 Martinique/1243/1999
Recorded measurements of Kd, one per entry
Form entry: value (µM) — number only.

Known Kd results, listed for orientation:
{"CHAIN": "IINKRKKTSL", "Kd / µM": 0.0839}
{"CHAIN": "WLGARYLEF", "Kd / µM": 0.00226}
{"CHAIN": "FCSHHFHEL", "Kd / µM": 0.135}

Pending sequence:
Input line: Please give the documented Kd of TLKRRSWPL
Output line: 0.00118

* * *

- TARGET: HLA-B*18:01
- MEASUREMENT PROTOCOL: IEDB peptide-MHC binding, purified MHC/direct/fluorescence; filed as Kd, often an IC50 or EC50 that approximates it; bounds were set here for any values at or beyond the usual limits of such assays
- EXPERIMENTAL CONTEXT: source organism: Giardia lamblia ATCC 50803
Recorded measurements of Kd, one per entry

{"CHAIN": "YIASIFMPR", "TARGET": "HLA-B*18:01", "Kd": "≥ 20 µM"}

Pending sequence:
Input line: Please give the documented Kd of IVKYKQYLK
Output line: ≥ 20 µM

* * *

- TARGET: HLA-A*26:01
- MEASUREMENT PROTOCOL: IEDB peptide-MHC binding, purified MHC/competitive/radioactivity; filed as Kd, often an IC50 or EC50 that approximates it; bounds were set here for any values at or beyond the usual limits of such assays
- EXPERIMENTAL CONTEXT: source organism: SARS coronavirus Tor2
ENDPOINT NAME: pKd
# pKd: negative log10 of molar concentration; output just the value

Known pKd results, listed for orientation:
{"CHAIN": "LYYPSARIVY", "VAL": 5.13}
{"CHAIN": "LYLYALIYFL", "VAL": 5.61}

Pending sequence:
Input line: Report pKd from HLA-A*26:01 testing of SYEHQTPFEI
Output line: 4.98

* * *

- TARGET: HLA-A*02:07
- MEASUREMENT PROTOCOL: IEDB peptide-MHC binding, purified MHC/competitive/radioactivity; filed as Kd, often an IC50 or EC50 that approximates it; bounds were set here for any values at or beyond the usual limits of such assays
- EXPERIMENTAL CONTEXT: source organism: Homo sapiens
ENDPOINT NAME: Kd

Input line: Please give the documented Kd of SIRDGVRAY
Output line: ≥ 60 µM

* * *

- TARGET: HLA-A*03:01
- MEASUREMENT PROTOCOL: IEDB peptide-MHC binding, purified MHC/competitive/radioactivity; filed as Kd, often an IC50 or EC50 that approximates it; bounds were set here for any values at or beyond the usual limits of such assays
- EXPERIMENTAL CONTEXT: source organism: Mammarenavirus guanaritoense
ENDPOINT NAME: Kd (µM)
Form entry: value (µM) — number only.

Input line: Please give the documented Kd of KCSDHYLCLR
Output line: 4.76

* * *

- TARGET: HLA-B*18:01
- MEASUREMENT PROTOCOL: IEDB peptide-MHC binding, purified MHC/competitive/radioactivity; filed as Kd, often an IC50 or EC50 that approximates it; bounds were set here for any values at or beyond the usual limits of such assays
- EXPERIMENTAL CONTEXT: source organism: Lymphocytic choriomeningitis virus (strain Armstrong)
ENDPOINT NAME: pKd
# pKd: negative log10 of molar concentration; output just the value

Input line: Report pKd from HLA-B*18:01 testing of IEVALRTLL
Output line: 7.11

* * *

- TARGET: HLA-A*25:01
- MEASUREMENT PROTOCOL: IEDB peptide-MHC binding, purified MHC/competitive/fluorescence; bounds were set here for any values at or beyond the usual limits of such assays
- EXPERIMENTAL CONTEXT: source organism: Gorilla gorilla gorilla
pIC50: −log10 of the molar value.
ENDPOINT NAME: pIC50

Input line: Please give the documented pIC50 of RYSHWTKL
Output line: ≤ 4.70

* * *

- TARGET: HLA-B*08:01
- MEASUREMENT PROTOCOL: IEDB peptide-MHC binding, purified MHC/direct/fluorescence; filed as Kd, often an IC50 or EC50 that approximates it; bounds were set here for any values at or beyond the usual limits of such assays
- EXPERIMENTAL CONTEXT: source organism: Orthohantavirus negraense
ENDPOINT NAME: Kd (µM)
Form entry: value (µM) — number only.

Input line: Please give the documented Kd of MSRKLHRYI
Output line: 4.71

* * *

- TARGET: HLA-B*45:01
- MEASUREMENT PROTOCOL: IEDB peptide-MHC binding, purified MHC/competitive/radioactivity; filed as Kd, often an IC50 or EC50 that approximates it; bounds were set here for any values at or beyond the usual limits of such assays
- EXPERIMENTAL CONTEXT: source organism: SARS coronavirus Tor2
ENDPOINT NAME: pKd
# pKd: negative log10 of molar concentration; output just the value

{"CHAIN": "SEQSLRLVDA", "pKd": 8.23}
{"CHAIN": "AEYKLQQGTF", "pKd": 7.21}
{"CHAIN": "VETVSLAGSY", "pKd": 4.93}

Input line: Please give the documented pKd of AEWVLAYML
Output line: 7.44

Input line: Please give the documented pKd of PEFYEAMYT
Output line: 5.47

Input line: Please give the documented pKd of AEAAVKPLLA
Output line: 7.97

* * *

- TARGET: HLA-A*69:01
- MEASUREMENT PROTOCOL: IEDB peptide-MHC binding, purified MHC/competitive/fluorescence; filed as Kd, often an IC50 or EC50 that approximates it; bounds were set here for any values at or beyond the usual limits of such assays
- EXPERIMENTAL CONTEXT: source organism: Pseudomonas sp. MIS38
ENDPOINT NAME: pKd
# pKd: negative log10 of molar concentration; output just the value

Input line: Please give the documented pKd of YMLKDSAPT
Output line: 5.70

* * *

- TARGET: HLA-B*07:02
- MEASUREMENT PROTOCOL: IEDB peptide-MHC binding, purified MHC/direct/fluorescence; filed as Kd, often an IC50 or EC50 that approximates it; bounds were set here for any values at or beyond the usual limits of such assays
- EXPERIMENTAL CONTEXT: source organism: Influenza A virus (A/equine/New York/1/1999(H3N8))
pKd: −log10 of the molar value.
ENDPOINT NAME: pKd

Input line: Please give the documented pKd of VAGGTSSVY
Output line: ≤ 4.70

* * *

- TARGET: HLA-A*31:01
- MEASUREMENT PROTOCOL: IEDB peptide-MHC binding, purified MHC/competitive/radioactivity; filed as Kd, often an IC50 or EC50 that approximates it; bounds were set here for any values at or beyond the usual limits of such assays
- EXPERIMENTAL CONTEXT: source organism: Lymphocytic choriomeningitis virus (strain Pasteur)
ENDPOINT NAME: pKd
# pKd: negative log10 of molar concentration; output just the value

Input line: Please give the documented pKd of TYLGPLNCK
Output line: 5.28

* * *

- TARGET: HLA-B*39:01
- MEASUREMENT PROTOCOL: IEDB peptide-MHC binding, purified MHC/competitive/fluorescence; filed as Kd, often an IC50 or EC50 that approximates it; bounds were set here for any values at or beyond the usual limits of such assays
- EXPERIMENTAL CONTEXT: source organism: Cryptosporidium parvum Iowa II
pKd: −log10 of the molar value.
ENDPOINT NAME: pKd

Input line: Please give the documented pKd of LTAPCDIYV
Output line: ≤ 4.70

* * *

- TARGET: HLA-C*05:01
- MEASUREMENT PROTOCOL: IEDB peptide-MHC binding, purified MHC/direct/fluorescence; filed as Kd, often an IC50 or EC50 that approximates it; bounds were set here for any values at or beyond the usual limits of such assays
- EXPERIMENTAL CONTEXT: source organism: Homo sapiens
ENDPOINT NAME: Kd (nM)
Form entry: value (nM) — number only.

Input line: Please give the documented Kd of LTDSSTLLV
Output line: 8
